TARGET OR TEST SYSTEM: human serotonin 5-HT2C receptor (Homo sapiens, UniProt P28335)
Construct: expressed in transfected cells; host or cells: CHO-K1
Sequence (P28335 33-458): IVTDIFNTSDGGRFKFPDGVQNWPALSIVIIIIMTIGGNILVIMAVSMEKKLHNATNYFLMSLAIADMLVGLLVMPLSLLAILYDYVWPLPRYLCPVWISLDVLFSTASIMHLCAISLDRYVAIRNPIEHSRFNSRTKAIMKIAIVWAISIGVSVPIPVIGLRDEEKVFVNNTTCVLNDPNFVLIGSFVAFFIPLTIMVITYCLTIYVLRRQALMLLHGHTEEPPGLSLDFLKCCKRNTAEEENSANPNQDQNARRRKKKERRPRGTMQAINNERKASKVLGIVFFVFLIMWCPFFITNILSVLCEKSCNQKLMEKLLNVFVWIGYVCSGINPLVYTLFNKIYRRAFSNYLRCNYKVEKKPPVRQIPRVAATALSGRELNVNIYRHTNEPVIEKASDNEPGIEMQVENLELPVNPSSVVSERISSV
PROCEDURE SUMMARY: Radioligand binding assay, human 5-HT2C receptors ([3H]Mesulergine)
TEST CONDITIONS: human 5-HT2c; Example 16 table; read-out: IC50 (nM) 5-HT2c
REPORTED METRIC: IC50

Worked set:
>>> df
                                   molecule     result
0        CN1CCN(c2nc(CCc3ccc(Cl)cc3)cs2)CC1   < 100 nM
1  CC(C)N1CCN(c2nc(C3(c4ccc(F)cc4)CCCCC3)cs2)CC1  < 1000 nM
2  Clc1ccc(C2(c3csc(NCCCN4CCOCC4)n3)CCC2)cc1  < 1000 nM

# batch: return IC50 for each of the 7 molecules below
1. CN1CCN(c2nc(C3(c4ccc(Cl)cc4)CCCC3)cs2)CC1
2. CN1CCCC1CCNc1nc(C2(c3ccc(Cl)cc3)CCC2)cs1 (stereo not drawn)
3. CN1CCN(c2nc(C3(c4ccc(C(F)(F)F)cc4)CCOCC3)cs2)CC1
4. CN1CCN(c2nc(C3(c4ccc(Cl)cc4)CCCCC3)cs2)CC1
5. CN1CCC(c2nc(C3(c4ccc(Cl)cc4)CCCCC3)cs2)CC1
6. CN1CCC(c2nc(C3(c4cccc(Cl)c4)CCOCC3)cs2)CC1
7. Clc1cccc(C2(c3csc(C4CCCNC4)n3)CCOCC2)c1 (stereo not drawn)

< 1000 nM
< 10 nM
> 1000 nM
< 100 nM
< 1000 nM
> 1000 nM
> 1000 nM

For every item below, please supply its IC50.
1. CN1CCN(c2nc(Cc3csc4ccc(Cl)cc34)cs2)CC1
2. CN1CCN(c2nc(C3(c4ccc(OC(F)(F)F)cc4)CCOCC3)cs2)CC1

["< 100 nM", "< 1000 nM"]

Source listed as patent US7087623B2.
